Test system: HT1080 fibrosarcoma cells
protocol_summary: Chemoinvasion assay, type IV collagen-coated Transwell inserts (Boyden chamber)
Format: cell-based, human
protocol_conditions: Homo sapiens, HT-1080, 48 h, 1 μM, type IV collagen-coated filters, read-out: inhibition of HT1080 cell invasion (chemoinvasion)
recorded_metric: inhibition at 1 µM (%)

| mol | recorded_metric | obs_value |
| --- | --- | --- |
| O=C(Oc1cccc(Cl)c1)c1cc2ccccc2oc1=O | inhibition at 1 µM | 50 |
| Cc1ccc2oc(=O)c(C(=O)Oc3cccc(Cl)c3)cc2c1 | inhibition at 1 µM | 50 |
| CC(=O)OCc1ccc2oc(=O)c(C(=O)Oc3ccccc3)cc2c1 | inhibition at 1 µM | 30 |
| CC(=O)OCc1ccc2oc(=O)c(C(=O)Oc3cccc(Br)c3)cc2c1 | inhibition at 1 µM | 80 |
| CC(=O)OCc1ccc2oc(=O)c(C(=O)Oc3cccc(F)c3)cc2c1 | inhibition at 1 µM | 80 |
| CC(=O)OCc1ccc2oc(=O)c(C(=O)Oc3cccc(Cl)c3)cc2c1 | inhibition at 1 µM | 50 |
